The reported numbers originate from patent US9597315B2.

Biological target: human DA transporter (Homo sapiens)
Construct: expressed in transfected cells; host or cells: CHO-K1 cells
Sequence (Q01959 whole entry): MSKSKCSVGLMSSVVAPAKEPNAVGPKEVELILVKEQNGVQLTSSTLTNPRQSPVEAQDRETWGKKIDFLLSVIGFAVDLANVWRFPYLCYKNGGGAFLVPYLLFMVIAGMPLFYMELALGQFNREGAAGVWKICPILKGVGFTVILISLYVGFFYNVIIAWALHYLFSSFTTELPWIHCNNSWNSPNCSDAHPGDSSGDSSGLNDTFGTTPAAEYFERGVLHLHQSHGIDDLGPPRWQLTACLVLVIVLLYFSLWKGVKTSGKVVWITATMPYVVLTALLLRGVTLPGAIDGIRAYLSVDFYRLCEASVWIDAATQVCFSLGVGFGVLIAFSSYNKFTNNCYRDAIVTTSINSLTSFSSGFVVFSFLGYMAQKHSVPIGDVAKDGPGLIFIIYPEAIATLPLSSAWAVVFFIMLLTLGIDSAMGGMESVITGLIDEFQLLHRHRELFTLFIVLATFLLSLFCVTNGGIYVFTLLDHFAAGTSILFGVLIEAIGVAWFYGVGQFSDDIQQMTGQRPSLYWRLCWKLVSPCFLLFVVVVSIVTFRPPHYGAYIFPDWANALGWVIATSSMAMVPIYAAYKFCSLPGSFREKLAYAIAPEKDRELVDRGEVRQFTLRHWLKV
Experiment: Inhibition of [3H]DA uptake in cells expressing the recombinant human DA transporter
Format: cell-based
Conditions: 1 μM compound, CHO-K1 cells expressing the DA transporter, read-out: Uptake inh. % at 1 μM DA
Given measured inhibition at 1 µM, output met if it is greater than or equal to 20% and not met if not.

CCN1CC2CC2(c2ccc3c(ccn3C)c2)C1 (stereo not shown)	met
c1ccc2ncc(C34CNCC3C4)cc2c1 (stereo not shown)	not met
CC(C)N1CC2CC2(c2cc3ccccc3n2C)C1 (stereo not shown)	not met
CN1CC2CC2(c2cc3ccccc3n2C)C1 (stereo not shown)	not met
CN1CC2CC2(c2ccc3c(ccn3C)c2)C1 (stereo not shown)	met
CN1CC2CC2(c2coc3ccccc23)C1 (stereo not shown)	met

query: Threshold query (inhibition at 1 µM >= 20%) on c1cnc2ccc(C34CNCC3C4)cc2c1 (stereo not shown)
result: not met
